B1: LINE1-full (parent)
chain: UACGUAGGUGGUUUUCCCCUGAUAGUGCUAAGGGGGCCUGGAAGUUUGGACUGGGCAGAGCUCAACACAGCGUGGCAAAGUGGCUGUGGCUAGACUGCCUCUCUGGAUUCCUCGUCACUCAGCAGGGCAUCUCUGAGAGAAAUGCC

variants of: B1; test: self-cleavage, relative activity (ratio to wild type); higher = more cleavage; in vitro, sequencing; the parent is a self-cleaving ribozyme
value type: self-cleavage

INSERT INTO measurements (variant_key, value_type, value_measured) VALUES
  ('C95A U102C', 'self-cleavage', 0.11),
  ('A64G A94G', 'self-cleavage', 0.06),
  ('A69G U109A', 'self-cleavage', 0.43),
  ('G54A U87A', 'self-cleavage', 0.06),
  ('U47A A67U', 'self-cleavage', 0.12),
  ('U14A C103U', 'self-cleavage', 0.99);

Reference for the values: the RNAGym collection of RNA variant scans (doi:10.7554/elife.90254)
